- EXPERIMENTAL_TARGET: T1, cyno PAI-1 captured on immobilized human vitronectin (cynomolgus monkey; human, UniProt P04004 20-478, limits assumed)
- T1 construct: non-covalent complex formed on the chip; also called cPAI-1/Vn
- T1 sequence (chain, as listed by the source limits assumed, chain 1 of 2): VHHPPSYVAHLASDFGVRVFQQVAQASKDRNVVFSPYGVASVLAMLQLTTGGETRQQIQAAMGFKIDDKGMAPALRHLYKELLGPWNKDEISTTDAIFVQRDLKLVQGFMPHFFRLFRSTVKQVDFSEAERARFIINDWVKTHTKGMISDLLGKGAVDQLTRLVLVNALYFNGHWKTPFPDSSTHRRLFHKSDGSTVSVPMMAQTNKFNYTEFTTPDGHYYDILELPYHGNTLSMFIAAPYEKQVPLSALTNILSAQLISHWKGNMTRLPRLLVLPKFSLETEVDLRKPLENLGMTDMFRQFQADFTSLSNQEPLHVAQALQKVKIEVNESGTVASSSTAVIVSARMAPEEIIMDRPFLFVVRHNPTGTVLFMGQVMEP
- T1 sequence (P04004 20-478 limits assumed, chain 2 of 2): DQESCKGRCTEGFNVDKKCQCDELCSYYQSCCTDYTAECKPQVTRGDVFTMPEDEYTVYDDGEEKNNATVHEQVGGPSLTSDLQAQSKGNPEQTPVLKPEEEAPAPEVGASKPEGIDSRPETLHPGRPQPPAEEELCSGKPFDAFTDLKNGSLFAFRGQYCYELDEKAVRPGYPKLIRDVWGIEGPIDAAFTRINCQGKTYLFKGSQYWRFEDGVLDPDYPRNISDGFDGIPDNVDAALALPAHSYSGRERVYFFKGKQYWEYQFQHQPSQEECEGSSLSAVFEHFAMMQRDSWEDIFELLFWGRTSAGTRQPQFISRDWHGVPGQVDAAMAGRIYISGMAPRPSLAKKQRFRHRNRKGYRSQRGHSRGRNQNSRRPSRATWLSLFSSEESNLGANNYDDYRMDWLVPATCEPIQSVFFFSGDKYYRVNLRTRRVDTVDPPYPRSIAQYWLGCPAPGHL
- ASSAY_NOTES: Biacore, cPAI-1 on vitronectin chip, two state reaction model
Hi there, I'd appreciate the recorded pKd for every entry that follows.
Answers are plain numbers, as −log10 of the molar value.

A44-hv4 (antibody, V domains shown, humanized A44, HEK293; constant regions as for A44-hv1; also called LC1a x HC2b; variant 4) VH: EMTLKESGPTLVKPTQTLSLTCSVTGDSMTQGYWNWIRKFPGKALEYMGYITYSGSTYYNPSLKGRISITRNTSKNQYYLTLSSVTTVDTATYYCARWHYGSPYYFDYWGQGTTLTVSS VL: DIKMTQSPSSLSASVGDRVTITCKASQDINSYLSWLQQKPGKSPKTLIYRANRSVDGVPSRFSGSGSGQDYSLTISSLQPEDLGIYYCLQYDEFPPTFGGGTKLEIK | 9.12

Hi! Can you tell me pKd for each of these binders?
1. A44-hv13 (antibody, V domains shown, humanized A44, HEK293; constant regions as for A44-hv1; also called LC2 x HC5b; variant 13) VH: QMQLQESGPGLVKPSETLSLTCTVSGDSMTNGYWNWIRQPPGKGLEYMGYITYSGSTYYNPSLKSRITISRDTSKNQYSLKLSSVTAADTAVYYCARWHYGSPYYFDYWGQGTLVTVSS VL: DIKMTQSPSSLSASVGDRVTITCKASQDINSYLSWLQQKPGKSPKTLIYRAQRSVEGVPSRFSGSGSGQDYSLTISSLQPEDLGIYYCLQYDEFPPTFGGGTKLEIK
2. A44-hv2 (antibody, V domains shown, humanized A44, HEK293; constant regions as for A44-hv1; also called LC1b x HC1b; variant 2) VH: EMQLQESGPGLVKPSETLSLTCSVTGDSMTNGYWNWIRKFPGKGLEYMGYITYSGSTYYNPSLKGRISITRNTSKNQYYLKLSSVTTADTATYYCARWHYGSPYYFDYWGQGTTLTVSS VL: DIKMTQSPSSVSVSPGQTVTITCKASQDINSYLSWLQQKPGQSPKTLIYRANRSVDGVPSRFSGSGSGQDYSLTISSLQAMDEGIYYCLQYDEFPPTFGGGTKLTIK

1: 9.94; 2: 9.86
